tested on: Streptococcus pneumonia ATTC49619; experiment: Bacterial growth minimal inhibitory concentration (microdilution, CLSI M7-A7); assay type: cell-based; details: Streptococcus pneumoniae, ATTC49619; quinolone-sensitive strain; cation-adjusted Mueller-Hinton Broth; read-out: MIC for S. pneumonia ATTC49619
Observable: MIC (µg/mL)
The response must be a number in µg/mL with no trailing unit.

Consider the following illustrative entries.
- Molecule: "O=C(CC1OC(=O)c2cc(-c3cc(F)ccc3F)ccc21)NCCn1c(=O)ccc2ccc(F)cc21 (racemic)"
  Target System: "Streptococcus pneumonia ATTC49619"
  Unit String: "µg/mL"
  MIC: 0.25
- Molecule: "CC(C)=Cc1ccc2c(c1)C(=O)OC2CC(=O)NCCn1c(=O)ccc2ccc(F)cc21 (racemic)"
  Target System: "Streptococcus pneumonia ATTC49619"
  Unit String: "µg/mL"
  MIC: 0.5
- Molecule: "O=C(CC1OC(=O)c2cc(-c3ccccc3F)ccc21)NCCn1c(=O)ccc2ccc(F)cc21 (racemic)"
  Target System: "Streptococcus pneumonia ATTC49619"
  Unit String: "µg/mL"
  MIC: 0.5

Now for a further molecule.
Suppose we examine the molecule O=C(Cn1c(=O)ccc2ccc(F)cc21)NCCC1OC(=O)c2cc(-c3ccccc3)ccc21 (racemic) ; what MIC value has been reported?
4

###

tested on: Streptococcus pneumonia ATTC49619; assay: Bacterial growth minimal inhibitory concentration (microdilution, CLSI M7-A7); type: cell-based; details: Streptococcus pneumoniae, ATTC49619; quinolone-sensitive strain; cation-adjusted Mueller-Hinton Broth; read-out: MIC for S. pneumonia ATTC49619
Each record is given 1 (yes) if its reported MIC is strictly below 0.5 µg/mL. Records at or above 0.5 µg/mL are given 0 (no).

- Molecule: "O=C1OC(CCNCCn2c(=O)ccc3ccc(F)cc32)c2ccc(-c3ccccc3)cc21 (racemic)"
  Target System: "Streptococcus pneumonia ATTC49619"
  Class Name: "1 (yes)"

hey, is MIC for O=C(Cn1c(=O)ccc2ccc(F)cc21)NCCC1OC(=O)c2cc(-c3cc(F)cc(F)c3)ccc21 (racemic) lower than 0.5 µg/mL or not?
0 (no)

hey, is MIC for O=C(CC1OC(=O)c2cc(-c3ccc(F)c(F)c3)ccc21)NCCn1c(=O)ccc2ccc(F)cc21 (racemic) lower than 0.5 µg/mL or not?
0 (no)

hey, is MIC for O=C(CC1OC(=O)c2cc(-c3ccccc3)ccc21)NCCn1c(=O)ccc2ccc(F)cc21 (racemic) lower than 0.5 µg/mL or not?
0 (no)

###

MIC overview
system: Streptococcus pneumonia ATTC49619; assay: Bacterial growth minimal inhibitory concentration (microdilution, CLSI M7-A7); assay type: cell-based; settings: Streptococcus pneumoniae, ATTC49619; quinolone-sensitive strain; cation-adjusted Mueller-Hinton Broth; read-out: MIC for S. pneumonia ATTC49619
// unit must come after the numeric part

Consider the following illustrative entries.
- Molecule: "O=C1OC(C(=O)NCCCn2c(=O)ccc3ccc(F)cc32)c2ccc(-c3ccccc3)cc21 (racemic) [Example 13]"
  Target System: "Streptococcus pneumonia ATTC49619"
  MIC: "1 µg/mL"
- Molecule: "O=C(Cn1c(=O)ccc2ccc(F)cc21)NCCC1OC(=O)c2cc(C3=CCCCC3)ccc21 (racemic) [Example 22]"
  Target System: "Streptococcus pneumonia ATTC49619"
  MIC: "1 µg/mL"
- Molecule: "O=C1OC(C(=O)NCCCn2c(=O)ccc3ccc(F)cc32)c2ccc(C3=CCCCC3)cc21 (racemic) [Example 21]"
  Target System: "Streptococcus pneumonia ATTC49619"
  MIC: "4 µg/mL"
- Molecule: "O=C(Cn1c(=O)ccc2ccc(F)cc21)NCCC1OC(=O)c2cc(-c3cc(F)ccc3F)ccc21 (racemic) [Example 19]"
  Target System: "Streptococcus pneumonia ATTC49619"
  MIC: "0.5 µg/mL"
- Molecule: "O=C(CC1OC(=O)c2cc(-c3cccc(F)c3)ccc21)NCCn1c(=O)ccc2ccc(F)cc21 (racemic) [Example 5]"
  Target System: "Streptococcus pneumonia ATTC49619"
  MIC: "0.5 µg/mL"

Suppose we examine the molecule O=C(CC1OC(=O)c2cc(C3=CCCC3)ccc21)NCCn1c(=O)ccc2ccc(F)cc21 (racemic) [Example 12] ; what MIC value has been reported?
2 µg/mL

Suppose we examine the molecule O=C(CC1OC(=O)c2cc(C3=CCCCC3)ccc21)NCCn1c(=O)ccc2ccc(F)cc21 (racemic) [Example 16] ; what MIC value has been reported?
0.5 µg/mL

###

MIC overview
Test system: Moraxella catarrhalis A894
Test: Bacterial growth minimal inhibitory concentration (microdilution, CLSI M7-A7)
Format: cell-based
Settings: Moraxella catarrhalis, A894; quinolone-sensitive strain; cation-adjusted Mueller-Hinton Broth
Experimental: Minimal Inhibitory Concentrations (MICs; […]) were determined in cation-adjusted Mueller-Hinton Broth by a microdilution method following the description given in “Methods for Dilution Antimicrobial Susceptibility Tests for Bacteria that Grow Aerobically”, Approved standard, 7th ed., Clinical and Laboratory Standards Institute (CLSI) Document M7-A7, Wayne, Pa., USA, 2006.
The response must be a number in µg/mL with no trailing unit.

Consider the following illustrative entries.
- Molecule: "O=C(CC1OC(=O)c2cc(C3=CCCCC3)ccc21)NCCn1c(=O)ccc2ccc(F)cc21 (racemic)"
  MIC [µg/mL]: 0.5
- Molecule: "O=C1OC(CCNCCn2c(=O)ccc3ccc(F)cc32)c2ccc(-c3ccc(F)cc3F)cc21 (racemic)"
  MIC [µg/mL]: 4
- Molecule: "O=C(CC1OC(=O)c2cc(C3=CCCC3)ccc21)NCCn1c(=O)ccc2ccc(F)cc21 (racemic)"
  MIC [µg/mL]: 1
- Molecule: "O=C(CC1OC(=O)c2cc(-c3cccc(F)c3F)ccc21)NCCn1c(=O)ccc2ccc(F)cc21 (racemic)"
  MIC [µg/mL]: 0.5
- Molecule: "COc1ccc2ncc(=O)n(CCNCCC3OC(=O)c4cc(-c5ccccc5)ccc43)c2n1 (racemic)"
  MIC [µg/mL]: 0.5

Now for a further molecule.
Suppose we examine the molecule O=C(CC1OC(=O)c2cc(-c3ccccc3F)ccc21)NCCn1c(=O)ccc2ccc(F)cc21 (racemic) ; what MIC value has been reported?
2

###

MIC overview
system: Moraxella catarrhalis A894; test: Bacterial growth minimal inhibitory concentration (microdilution, CLSI M7-A7); type: cell-based; details: Moraxella catarrhalis, A894; quinolone-sensitive strain; cation-adjusted Mueller-Hinton Broth

Consider the following illustrative entries.
- Compound: "O=C(CC1OC(=O)c2cc(-c3cccc(F)c3)ccc21)NCCn1c(=O)ccc2ccc(F)cc21 (racemic)"
  MIC: "1 µg/mL"
- Compound: "O=C(CC1OC(=O)c2cc(-c3cc(F)cc(F)c3)ccc21)NCCn1c(=O)ccc2ccc(F)cc21 (racemic)"
  MIC: "0.125 µg/mL"
- Compound: "O=C1OC(CCNCCn2c(=O)ccc3ccc(F)cc32)c2ccc(-c3ccccc3)cc21 (racemic)"
  MIC: "1 µg/mL"
- Compound: "O=C(CC1OC(=O)c2cc(-c3ccc(F)c(F)c3)ccc21)NCCn1c(=O)ccc2ccc(F)cc21 (racemic)"
  MIC: "> 8 µg/mL"
- Compound: "CC(C)=Cc1ccc2c(c1)C(=O)OC2CCNC(=O)Cn1c(=O)ccc2ccc(F)cc21 (racemic)"
  MIC: "4 µg/mL"
- Compound: "O=C(Cn1c(=O)ccc2ccc(F)cc21)NCCC1OC(=O)c2cc(-c3cc(F)cc(F)c3)ccc21 (racemic)"
  MIC: "0.5 µg/mL"

Now for a further compound.
Suppose we examine the compound O=C(Cn1c(=O)ccc2ccc(F)cc21)NCCC1OC(=O)c2cc(-c3ccccc3)ccc21 (racemic) ; what MIC value has been reported?
> 8 µg/mL

###

tested on: Staphylococcus aureus ATCC29213; experiment: Bacterial growth minimal inhibitory concentration (microdilution, CLSI M7-A7); format: cell-based; conditions: Staphylococcus aureus, ATCC29213; methicillin-sensitive and quinolone-sensitive strain; cation-adjusted Mueller-Hinton Broth; read-out: MIC for S. aureus ATCC29213
MIC overview

- Compound: "O=C(CC1OC(=O)c2cc(-c3cccc(F)c3F)ccc21)NCCn1c(=O)ccc2ccc(F)cc21 (racemic) [Example 8]"
  Observable: "MIC"
  Reported Measurement: "0.031 µg/mL"
- Compound: "O=C1OC(C(=O)NCCCn2c(=O)ccc3ccc(F)cc32)c2ccc(-c3ccccc3)cc21 (racemic) [Example 13]"
  Observable: "MIC"
  Reported Measurement: "0.063 µg/mL"
- Compound: "CC(C)=Cc1ccc2c(c1)C(=O)OC2CC(=O)NCCn1c(=O)ccc2ccc(F)cc21 (racemic) [Example 17]"
  Observable: "MIC"
  Reported Measurement: "≤ 0.016 µg/mL"
- Compound: "CC(C)=Cc1ccc2c(c1)C(=O)OC2CCNC(=O)Cn1c(=O)ccc2ccc(F)cc21 (racemic) [Example 25]"
  Observable: "MIC"
  Reported Measurement: "0.063 µg/mL"
- Compound: "O=C(CC1OC(=O)c2cc(-c3cccc(F)c3)ccc21)NCCn1c(=O)ccc2ccc(F)cc21 (racemic) [Example 5]"
  Observable: "MIC"
  Reported Measurement: "0.063 µg/mL"

Now for a further compound.
Suppose we examine the compound COc1ccc2ncc(=O)n(CCNCCC3OC(=O)c4cc(-c5ccccc5)ccc43)c2n1 (racemic) [Example 2] ; what MIC value has been reported?
0.031 µg/mL
